target: SSTR1 (Homo sapiens, UniProt P30872); construct: purchased Perkin Elmer ES-520-M400UA; host or cells: CHO-K1 membranes; experiment: SSTR1 I-125 somatostatin competition binding assay for selectivity versus SSTR1 (CHO-K1 membranes); conditions: competition with I-125 somatostatin, membranes from CHO-K1 overexpressing SSTR1; read-out: SSTR1 Binding pIC50 (converted)
Sequence (P30872 whole entry): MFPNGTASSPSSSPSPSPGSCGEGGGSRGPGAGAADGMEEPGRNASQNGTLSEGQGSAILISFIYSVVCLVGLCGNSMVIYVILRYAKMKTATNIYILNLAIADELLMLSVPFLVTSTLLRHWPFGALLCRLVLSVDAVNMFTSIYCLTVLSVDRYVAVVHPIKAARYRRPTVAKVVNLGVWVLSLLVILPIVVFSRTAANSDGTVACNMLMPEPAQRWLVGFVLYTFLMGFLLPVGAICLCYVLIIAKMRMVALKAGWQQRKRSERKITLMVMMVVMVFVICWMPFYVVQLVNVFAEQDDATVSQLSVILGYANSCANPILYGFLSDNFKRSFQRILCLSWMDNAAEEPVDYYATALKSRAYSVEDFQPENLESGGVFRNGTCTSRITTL

compound	tested-system	qual	IC50 / µM
CCN1CCCC1CC(=O)NC(C)(C)c1nccc2occc12 (stereo not drawn)	SSTR1 (Homo sapiens, UniProt P30872)	>	50.1
CC[C@@H](CN1CCC1)C(=O)N[C@H](c1ccc(F)cc1)C(F)F	SSTR1 (Homo sapiens, UniProt P30872)	=	0.631
CC(C)(NC(=O)C[C@@H]1CCCN1)c1nccc2ccccc12	SSTR1 (Homo sapiens, UniProt P30872)	=	7.94
CN1CCC[C@H]1CC(=O)NC(C)(C)c1nn(C)c2ccccc12	SSTR1 (Homo sapiens, UniProt P30872)	=	10
CN1CCC[C@H]1CC(=O)NC(C)(C)c1nccc2occc12	SSTR1 (Homo sapiens, UniProt P30872)	>	50.1
Cc1ccc(C(NC(=O)CCN2CCC2)C(F)(F)F)cc1 (single isomer, unassigned)	SSTR1 (Homo sapiens, UniProt P30872)	=	5.01
CN1CCCCC1CC(=O)NC(C)(C)c1nn(C)c2ccccc12 (stereo not drawn)	SSTR1 (Homo sapiens, UniProt P30872)	=	3.16
C[C@H](CN1CCC1)C(=O)N[C@@H](CF)c1ccccc1 (single isomer, unassigned)	SSTR1 (Homo sapiens, UniProt P30872)	=	2.51
CN1CCC[C@@H]1CC(=O)NC(C)(C)c1cccc(F)c1Cl	SSTR1 (Homo sapiens, UniProt P30872)	>	50.1

----------
Measured log10 of IC50 of individual entries
biological target: SSTR1 (Homo sapiens, UniProt P30872); construct: purchased Perkin Elmer ES-520-M400UA; host or cells: CHO-K1 membranes; assay: SSTR1 I-125 somatostatin competition binding assay for selectivity versus SSTR1 (CHO-K1 membranes); conditions: competition with I-125 somatostatin, membranes from CHO-K1 overexpressing SSTR1; read-out: SSTR1 Binding pIC50 (converted)
value-kind: log10 of IC50 (log10 of the value in µM)

compound	log10 of IC50
Cc1cnc(C(C)(C)NC(=O)CC2CCCCN2C)c2ccccc12 (centres unmarked) [Example 42]	-0.20
CN1CCC[C@H]1CC(=O)NC(C)(C)c1ccc(Cl)cc1 [Example 35]	1.10
Cc1cccc2c(C(C)(C)NC(=O)C[C@@H]3CCCCN3C)nccc12 (single isomer, unassigned) [Example 9]	0.90
O=C(CCN1CCC1)NC(c1cccc(F)c1)C(F)(F)F (single isomer, unassigned) [Example 208]	1.20
CN1CCCC1CC(=O)NC(C)(C)c1nccc2ccccc12 (centres unmarked) [Example 203]	0.60
CC(C)[C@@H](CN1CCC1)C(=O)N[C@@H](c1ccccc1)C(F)F [Example 178]	0.80
CN1CCC[C@H]1CC(=O)NC(C)(C)COc1ncccc1C(F)(F)F [Example 48]	1.20
COc1ccc(C(C)(C)NC(=O)[C@H](C)CN2CCC2)cc1 (single isomer, unassigned) [Example 138]	1.20
COc1ccccc1C(C)(C)NC(=O)[C@H](C)CN1CCCC1 (single isomer, unassigned) [Example 75]	1.00
CC[C@@H](CN1CCC1)C(=O)N[C@H](c1ccccc1OC)C(F)F [Example 189]	-0.20
CN1CCCC[C@@H]1CC(=O)NC(C)(C)c1nccc2occc12 (single isomer, unassigned) [Example 14]	1.40
Cc1cccc(OCC(C)(C)NC(=O)C[C@@H]2CCCN2C)n1 [Example 104]	1.60
C[C@@H](C(=O)NC(C)(C)c1nccc2ccccc12)[C@@H]1CCCN1C (racemic) [Example 110]	1.10
Cc1cccc2c(C(C)(C)NC(=O)C[C@H]3CCCCN3C)nccc12 (single isomer, unassigned) [Example 8]	0.60
CC(C)[C@@H](CN1CCC1)C(=O)N[C@H](c1ccccc1)C(F)F [Example 179]	-0.60

----------
biological target: SSTR1 (Homo sapiens); construct: purchased Perkin Elmer ES-520-M400UA; host or cells: CHO-K1 membranes; test: SSTR1 I-125 somatostatin competition binding assay for selectivity versus SSTR1 (CHO-K1 membranes); conditions: competition with I-125 somatostatin, membranes from CHO-K1 overexpressing SSTR1; read-out: SSTR1 Binding pIC50 (converted)

compound	tested-system	unit-label	qual	IC50
Cc1cccc(C(C)(C)NC(=O)C[C@H]2CCCN2C)c1Cl	SSTR1 (Homo sapiens)	µM	=	25.1
CN1CCC[C@@H]1CC(=O)NC(C)(C)c1nccc2occc12	SSTR1 (Homo sapiens)	µM	>	50.1
Cc1cccc2c(C(C)(C)NC(=O)C[C@H]3CCCN3C)noc12	SSTR1 (Homo sapiens)	µM	=	10
Cc1ccc(C(CF)NC(=O)CCN2CCC2)cc1 (centres unmarked)	SSTR1 (Homo sapiens)	µM	>	50.1
CC[C@H](CN1CCC1)C(=O)NC(C)(C)c1cccc(F)c1 (single isomer, unassigned)	SSTR1 (Homo sapiens)	µM	=	2

----------
Measured EC50 of individual entries
biological target: SSTR4 (Homo sapiens); construct: host or cells: CHO-K1; test: Inhibition of forskolin stimulated cAMP in CHO-K1 cells overexpressing SSTR4; assay type: cell-based; conditions: read-out: SSTR4 Activity pEC50 (converted)
Sequence (P31391 whole entry): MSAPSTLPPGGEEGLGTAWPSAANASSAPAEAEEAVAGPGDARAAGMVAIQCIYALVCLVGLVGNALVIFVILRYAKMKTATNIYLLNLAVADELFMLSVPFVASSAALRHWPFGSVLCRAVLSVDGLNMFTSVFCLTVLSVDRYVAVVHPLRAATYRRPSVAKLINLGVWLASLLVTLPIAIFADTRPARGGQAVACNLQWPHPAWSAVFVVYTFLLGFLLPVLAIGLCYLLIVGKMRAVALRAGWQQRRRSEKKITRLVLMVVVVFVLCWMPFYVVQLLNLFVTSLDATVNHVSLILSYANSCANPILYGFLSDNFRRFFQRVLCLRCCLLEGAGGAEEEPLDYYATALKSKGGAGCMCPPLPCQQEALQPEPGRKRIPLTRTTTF
value-kind: EC50 (nM)

compound	unit-label	qual	recorded-result
O=C(CCN1CCC1)N[C@@H](c1cc(F)ccc1F)C(F)F (single isomer, unassigned) [Example 168]	nM	>	5010
C[C@H](CN1CCC1)C(=O)NC(C)(C)c1ccccc1Cl (single isomer, unassigned) [Example 133]	nM	=	200
C[C@H](CN1CCCC1)C(=O)NC(C)(C)c1ccccc1Cl (single isomer, unassigned) [Example 136]	nM	=	6.31
CN1CCCCC1CC(=O)NC(C)(C)c1nccc2c1cnn2C (stereo not drawn) [Example 26]	nM	=	2510
CC(CN1CCCC1)C(=O)NC(C)(C)c1ccccc1Cl (stereo not drawn) [Example 135]	nM	=	10
CN1CCCC1CC(=O)NC(C)(C)c1nccc2occc12 (stereo not drawn) [Example 25]	nM	=	79.4
CC[C@@H](CN1CCC1)C(=O)NC(C)(C)c1cccc(F)c1 (single isomer, unassigned) [Example 185]	nM	=	79.4
CC(C)(NC(=O)C[C@@H]1CCCN1)c1nccc2ccccc12 [Example 23]	nM	=	25.1
CC(C)(NC(=O)CCN1CCC1)c1cccc(Cl)c1 [Example 164]	nM	=	12.6
CC(C)[C@@H](CN1CCC1)C(=O)N[C@@H](c1ccccc1)C(F)F [Example 178]	nM	=	39.8
CN1CCC[C@@H]1CC(=O)NC(C)(C)c1ccccc1F [Example 159]	nM	=	398
CN1CCC[C@H]1CC(=O)NC(C)(C)c1nccc2occc12 [Example 34]	nM	=	100
C[C@H](NC(=O)C[C@@H]1CCCN1C)c1ccc(Cl)cc1 [Example 31]	nM	=	316
COc1c(F)cccc1C(C)(C)NC(=O)C[C@@H]1CCCN1C [Example 114]	nM	=	251
Cc1ccc(C(NC(=O)CCN2CCC2)C(F)(F)F)cc1 (single isomer, unassigned) [Example 207]	nM	=	1.58
CN1CCCCC1CC(=O)NC(C)(C)c1nccc2ccccc12 (stereo not drawn) [Example 6]	nM	=	1.58
C[C@@H](CN1CCC1)C(=O)NC(C)(C)c1ccccc1F (single isomer, unassigned) [Example 157]	nM	=	2510
CN1CCCCC1CC(=O)NC(C)(C)COc1ncccc1C(F)(F)F (stereo not drawn) [Example 29]	nM	=	100

----------
target: SSTR4 (Homo sapiens); construct: host or cells: CHO-K1; assay: Inhibition of forskolin stimulated cAMP in CHO-K1 cells overexpressing SSTR4; type: cell-based; settings: read-out: SSTR4 Activity pEC50 (converted)
Measured EC50 of individual entries
value-kind: EC50 (nM)

compound	tested-system	value-kind	unit-label	qual	recorded-result
Cc1cccnc1OCC(C)(C)NC(=O)CC1CCCCN1C (stereo not shown) [Example 69]	SSTR4 (Homo sapiens)	EC50	nM	=	25.1
CCN1CCCC1CC(=O)NC1(COc2ncccc2C)CCC1 (stereo not shown) [Example 64]	SSTR4 (Homo sapiens)	EC50	nM	=	100
Cc1cccnc1OCC1(NC(=O)[C@H](C)[C@H]2CCCN2C)CC1 (single isomer, unassigned) [Example 177]	SSTR4 (Homo sapiens)	EC50	nM	>	10000
Cc1cccc(C(C)(C)NC(=O)[C@@H](C)CN2CCC2)c1Cl (single isomer, unassigned) [Example 145]	SSTR4 (Homo sapiens)	EC50	nM	=	0.794

----------
target: SSTR4 (Homo sapiens); construct: host or cells: CHO-K1; experiment: SSTR4 I-125 somatostatin competition binding assay (CHO-K1 membranes); details: competition with I-125 somatostatin, membranes from CHO-K1 overexpressing SSTR4; read-out: SSTR4 Binding pIC50 (converted)
Each entry belongs to exactly one class, chosen by where its IC50 falls: bottom (below 40 nM), middle (40 nM to below 100 nM), top (100 nM or more)

compound	label-value
Cc1cccc2c(C(C)(C)NC(=O)C[C@H]3CCCCN3C)nccc12 (single isomer, unassigned) [Example 8]	middle
O=C(CCN1CCC1)NC(c1ccc(F)cc1)C(F)(F)F (single isomer, unassigned) [Example 190]	bottom
COc1c(F)cccc1C(C)(C)NC(=O)C(C)CN1CCC1 (centres unmarked) [Example 170]	bottom
C[C@@H](C(=O)NC(C)(C)c1nccc2ccccc12)[C@@H]1CCCN1C (racemic) [Example 110]	middle
C[C@H](NC(=O)CC1CCCCN1C)c1ccc(Cl)cc1 (some centres unmarked) [Example 60]	top
O=C(CCN1CCC1)NC(c1cc(F)ccc1F)C(F)F (centres unmarked) [Example 167]	top
C[C@H](CN1CCC1)C(=O)N[C@H](c1ccccc1)C(F)F (single isomer, unassigned) [Example 181]	bottom
CN1CCC[C@H]1CC(=O)NC(C)(C)c1ccc(Cl)cc1 [Example 35]	top
Cc1cccc2c(C(C)(C)NC(=O)C[C@@H]3CCCCN3C)nccc12 (single isomer, unassigned) [Example 9]	top
Cc1cccc2c(C(C)(C)NC(=O)C[C@H]3CCCN3C)noc12 [Example 19]	top
O=C(CCN1CCCC1)N[C@H](c1cccc(Cl)c1)C(F)F (single isomer, unassigned) [Example 198]	bottom
Cc1cc2ccccc2c(C(C)(C)NC(=O)C[C@H]2CCCN2C)n1 [Example 70]	middle
COc1ccccc1C(C)(C)NC(=O)[C@H](C)CN1CCCC1 (single isomer, unassigned) [Example 75]	bottom
